# Test system: Mycobacterium tuberculosis
# PROCEDURE_DETAILS: AntiMycobacterium tuberculosis activity day 10 in 7H9/2.5mM butyrate/pH6/0.1mM nitrite MIC90 (uM)
# Assay type: functional
# CONDITION_LABEL: 240 h

COMPOUND: CCOc1ccc(OCC(=O)Nc2cc(C)cc(C)c2)cc1
MIC90: > 50 µM

COMPOUND: O=C(N[C@H](Cc1ccccc1)C(=O)Nc1ccccc1N1CCOCC1)c1cccs1
MIC90: > 50 µM

COMPOUND: Cc1ccc2nc(C)c(-c3ccn(Cc4ccccc4)n3)n2c1
MIC90: > 50 µM

COMPOUND: Cc1ccc2[nH]c(C3CCCNC3)c(-c3ccncc3)c2c1 (stereo not given)
MIC90: 25 µM

COMPOUND: O=C(c1ccco1)N(CCCn1ccnc1)c1nc2c(Cl)cccc2s1
MIC90: > 50 µM

COMPOUND: O=C(Nc1nnc(-c2ccc(Cl)s2)o1)c1ccc(Cl)s1
MIC90: > 50 µM

COMPOUND: CC(Oc1ccccc1)C(=O)Nc1nc(-c2ccccn2)cs1 (stereo not given)
MIC90: 6.25 µM

COMPOUND: Cc1cnc(N2CCN[C@@H](Cc3ccccc3)C2)nc1Oc1ccc(-n2ccnc2)cc1
MIC90: > 50 µM

COMPOUND: C[C@]1(COc2ccc(N3CCC(Oc4ccc(OC(F)(F)F)cc4)CC3)cc2)Cn2cc([N+](=O)[O-])nc2O1
MIC90: > 50 µM

COMPOUND: O=C(Nc1ccc(C(F)(F)F)c(C(F)(F)F)c1)c1cc(Cl)ccc1O
MIC90: 1.5 µM

====

# System: Dengue virus
# PROCEDURE_DETAILS: AntiDengue activity HCI DV2/Huh7 IC50 (uM)
# Type: functional, organism-based
# CONDITION_LABEL: Huh-7
Quick list: IC50 per entry.

MOLECULE: CC(C)(C)OC(=O)N1CCN(c2nccc(-c3ccc(-c4ccc(Cl)cc4)s3)n2)CC1
MEASURED_TARGET: Dengue virus
ENDPOINT_UNIT: µM
REPORTED_RELATION: >
IC50: 50

MOLECULE: OC[C@H]1O[C@@H](n2c3ccc(Cl)cc3c3c(-c4cc5ccccc5o4)ncnc32)C(O)[C@H]1O (stereo not given in full)
MEASURED_TARGET: Dengue virus
ENDPOINT_UNIT: µM
REPORTED_RELATION: >
IC50: 50

MOLECULE: COC(=O)c1ccc(F)cc1NS(=O)(=O)c1cccc(-c2cnn(Cc3ccccc3)c2)c1
MEASURED_TARGET: Dengue virus
ENDPOINT_UNIT: µM
REPORTED_RELATION: =
IC50: 10

MOLECULE: CC(C)(C)C(=O)N(CCCCCCN1C[C@H](O)[C@@H](O)[C@H](O)[C@H]1CO)C1CCCCCC1
MEASURED_TARGET: Dengue virus
ENDPOINT_UNIT: µM
REPORTED_RELATION: =
IC50: 2

MOLECULE: O=C1[C@@H](Oc2ccccc2)[C@@H](c2ccc(Cl)cc2)N1CCn1cnc2c(NCc3ccccc3)ncnc21
MEASURED_TARGET: Dengue virus
ENDPOINT_UNIT: µM
REPORTED_RELATION: =
IC50: 3

====

# Tested on: Plasmodium falciparum
# PROCEDURE_DETAILS: Antimalarial activity: Asexual Blood Stage Plasmodium falciparum 3D7 IC50 (uM)
# Type: functional, organism-based
ASSAY_ENDPOINT: log10 IC50 (log10 of the value in nM)

COMPOUND: CC1CC1C(=O)NC1CCN(CC2(c3ccccc3)CCCCC2)CC1 (stereo not given)
ASSAY_ENDPOINT: log10 IC50
READING: 2.76
//
COMPOUND: OCc1ccc(-c2cncc(Nc3cccc(Cl)c3)c2)cc1
ASSAY_ENDPOINT: log10 IC50
READING: 1.48
//
COMPOUND: CN(C)c1cc(NC(=O)Nc2ccccc2)c2ccccc2n1
ASSAY_ENDPOINT: log10 IC50
READING: 2.78
//
COMPOUND: COc1cccc2c(C)nc(N=C(N)N)nc12
ASSAY_ENDPOINT: log10 IC50
READING: 3.03
//
COMPOUND: Cc1ccc(S(=O)(=O)N2CCN(C(=O)c3cc(-c4ccccc4)n[nH]3)CC2)cc1
ASSAY_ENDPOINT: log10 IC50
READING: 3.02
//
COMPOUND: COc1ccc(C2CC(c3cccs3)=NN2C(=O)c2ccco2)cc1OC (stereo not given)
ASSAY_ENDPOINT: log10 IC50
READING: 2.48
//
COMPOUND: CC1CCCN(C(=O)C(C)Nc2cc(Cl)ccc2N2CCOCC2)C1 (stereo not given)
ASSAY_ENDPOINT: log10 IC50
READING: 2.72
